All figures here come from patent US20140377219A1.

- Test system: laboratory-adapted HIV-1 IIIB strain
- condition.details: read-out: MT-2 Cells IC50 (μM ± SD); multi-cycle assay, MT-2 cells, HIV-1 IIIB
In plain terms, low IC50, meaning strictly below 20 µM, gives Met, and everything else gives Not met.

- compound: "Cc1nc(C(NC(=O)C(=O)Nc2ccc(Cl)cc2)C2CCCCN2)sc1CCO.O=CO (centres unmarked) [Compound 30]"
  class.assignment: "Met"

**Query** Hi there! Is IC50 for CC(C)c1nccn1CCCNC(=O)CCC(=O)Nc1ccc(Cl)cc1 below 20 µM, do you know?
**Result** Not met

**Query** Hi there! Is IC50 for Cc1nc(C(NC(=O)C(=O)Nc2ccc(Cl)cc2)C2CCCN2)sc1CO (centres unmarked) below 20 µM, do you know?
**Result** Met

**Query** Criterion: IC50 strictly below 20 µM. Is it met by CC1(C)CC(NC(=O)C(=O)Nc2ccc(Cl)cc2)CC(C)(C)N1 [NBD-556, reference compound] ?
**Result** Met

**Query** Just wondering, is IC50 of Cc1nc(C(NC(=O)C(=O)NC2CCCCCC2)C2CCCCN2)sc1CO (centres unmarked) below 20 µM?
**Result** Not met

**Query** Is IC50 of Cc1ccc(NC(=O)C(=O)NC(c2nc(C)c(CCO)s2)C2CCCCN2)c(F)c1 (centres unmarked) strictly below 20 µM?
**Result** Not met

###

- tested.system: HIV-1IIIB gp120 and sCD4 (Human immunodeficiency virus type 1 group M subtype B)
- Construct: recombinant gp120 from HIV-1IIIB and HIV-1MN
- assay.comment: biochemical
- Type: binding
- condition.details: read-out: IC50 (μM ± SD), interaction HIV-1IIIB gp120 and sCD4
- Procedure: The compounds were incubated at graded concentrations with sCD4 (0.25 μg/ml) in the wells of polystyrene plates containing recombinant gp120, which was captured by coating the plates with a sheep anti-gp120 antibody D7324.
measured.parameter: IC50
Output should be the measured figure followed by the unit it is expressed in.

response.value for CC1(C)CC(NC(=O)C(=O)Nc2ccc(Br)cc2)CC(C)(C)N1 (field: IC50) = 3.08 µM

###

- Tested on: primary HIV-1 isolate RU570 (clade G, R5)
- assay.comment: Neutralization assay in PBMC (p24 ELISA)
- condition.details: read-out: IC50 (μM) ± S.D., inhibitory activity on infection; RU570, subtype G, PBMC, R5, primary isolate
# IC50 per record follows
Record the result as a number with its unit.

The following compounds have reported results that may help.
- compound: "CC1(C)CC(NC(=O)C(=O)Nc2ccc(Cl)cc2)CC(C)(C)N1 [NBD-556, reference compound]"
  IC50: "19.5 µM"
- compound: "Cc1nc(C(NC(=O)C(=O)Nc2ccc(Cl)c(F)c2)C2CCCCN2)sc1CCO.Cl (centres unmarked) [Compound 39]"
  IC50: "10.7 µM"
- compound: "Cc1ccc(NC(=O)C(=O)NC(c2nc(C)c(CCO)s2)C2CCCCN2)cc1F.Cl (centres unmarked) [Compound 38]"
  IC50: "15.8 µM"
- compound: "Cc1nc(C(NC(=O)C(=O)Nc2ccc(Cl)cc2)C2CCCCN2)sc1CO.Cl (centres unmarked) [Compound 6]"
  IC50: "8.5 µM"

According to the records, this compound Cc1ccc(NC(=O)C(=O)NC(c2nc(C)c(CO)s2)C2CCCCN2)cc1F.Cl (centres unmarked) [Compound 28] displays IC50 of 15.7 µM

###

- tested.system: HIV-1MN gp120 and sCD4 (Human immunodeficiency virus type 1 group M subtype B)
- Construct: recombinant gp120 from HIV-1IIIB and HIV-1MN
- assay.comment: biochemical
- Format: binding
- condition.details: read-out: IC50 (μM ± SD), interaction HIV-1MN gp120 and sCD4
measured.parameter: IC50 (µM)
Number only, in µM; omit the unit.

The reported IC50 of the compound CC1(C)CC(NC(=O)C(=O)Nc2ccc(Br)cc2)CC(C)(C)N1 [NBD-557] was 4.21

###

- System: HIV-1 RF/L-323-12-3 (protease resistant isolate)
- assay.comment: Multi-cycle neutralization assay in MT-2 cells
- condition.details: read-out: IC50 (μM) ± S.D., inhibitory activity on infection; HIV-1 RF/L-323-12-3, subtype B, MT-2, X4, protease resistant isolate
Listed next: entries and their corresponding IC50.
Value expressed in µM; do not type the unit.

- compound: "Cc1ccc(NC(=O)C(=O)NC(c2nc(C)c(CO)s2)C2CCCCN2)cc1F.Cl (centres unmarked) [Compound 28]"
  tested.system: "HIV-1 RF/L-323-12-3 (protease resistant isolate)"
  IC50 / µM: 4.8
- compound: "Cc1nc(C(NC(=O)C(=O)Nc2ccc(Cl)c(F)c2)C2CCCCN2)sc1CCO.Cl (centres unmarked) [Compound 39]"
  tested.system: "HIV-1 RF/L-323-12-3 (protease resistant isolate)"
  IC50 / µM: 6.9
- compound: "Cc1ccc(NC(=O)C(=O)NC(c2nc(C)c(CCO)s2)C2CCCCN2)cc1F.Cl (centres unmarked) [Compound 38]"
  tested.system: "HIV-1 RF/L-323-12-3 (protease resistant isolate)"
  IC50 / µM: 10.2

IC50 reading for Cc1nc(C(NC(=O)C(=O)Nc2ccc(Cl)cc2)C2CCCCN2)sc1CO.Cl (centres unmarked) [Compound 6] : 14.7

###

- Tested on: Panel B env SC422661, clone B (SVPB8)
- Type: cell-based
- condition.details: TZM-bl, read-out: IC50 (μM) ± S.D., antiviral activity against HIV-1 envelope pseudoviruses
measured.parameter: IC50 (µM)
I only need the number, in µM, no unit after it.

The cases that follow already have their IC50 on record.
- compound: "Cc1nc(C(NC(=O)C(=O)Nc2ccc(Cl)cc2)C2CCCCN2)sc1CO.Cl (stereo not drawn) [Compound 6]"
  tested.system: "Panel B env SC422661, clone B (SVPB8)"
  reported.value: 2.3
- compound: "Cc1nc(C(NC(=O)C(=O)Nc2ccc(Cl)c(F)c2)C2CCCCN2)sc1CCO.Cl (stereo not drawn) [Compound 39]"
  tested.system: "Panel B env SC422661, clone B (SVPB8)"
  reported.value: 1.3

Attention now turns to another entry.
compound Cc1ccc(NC(=O)C(=O)NC(c2nc(C)c(CO)s2)C2CCCCN2)cc1F.Cl (stereo not drawn) [Compound 28] , IC50 observed: 2.5

###

- Tested on: Panel C env ZM-135M.PL10a, SVPC15
- Format: cell-based
- condition.details: TZM-bl, read-out: IC50 (μM) ± S.D., antiviral activity against HIV-1 envelope pseudoviruses
measured.parameter: IC50 (µM)
# value in µM; strip the unit string

Entry CC1(C)CC(NC(=O)C(=O)Nc2ccc(Cl)cc2)CC(C)(C)N1 [NBD-556, reference compound] ; IC50 = 1.5

Value of measured IC50 for the entry Cc1nc(C(NC(=O)C(=O)Nc2ccc(Cl)cc2)C2CCCCN2)sc1CO.Cl (stereo not drawn) : 0.73

IC50 reading for Cc1nc(C(NC(=O)C(=O)Nc2ccc(Cl)c(F)c2)C2CCCCN2)sc1CCO.Cl (stereo not drawn) : 0.61

###

- Test system: HIV-1 SF2
- assay.comment: Multi-cycle neutralization assay in MT-2 cells
- condition.details: read-out: IC50 (μM) ± S.D., inhibitory activity on infection; SF2, subtype B, MT-2, R5X4, laboratory strain
Form field: IC50 (one value per entry).
Could you give me the number in µM? Just the number is fine.

Tested system HIV-1 SF2; IC50 recorded for Cc1ccc(NC(=O)C(=O)NC(c2nc(C)c(CCO)s2)C2CCCCN2)cc1F.Cl (centres unmarked) was 27.6

###

- System: TZM-bl cells
- assay.comment: Cytotoxicity in TZM-bl cells (XTT)
- Format: cell-based
- condition.details: TZM-bl cells, XTT, 3 days; read-out: TZM-bl cells CC50 (μM ± SD)
- Method: The cytotoxicity of small molecules in TZM-bl cells was measured by a colorimetric method using XTT (sodium 3′-(1-(phenylamino)-carbonyl)-3,4-tetrazolium-bis(4-methoxy-6-nitro)benzenesulfonic acid hydrate), a light yellowish tetrazolium dye. Briefly, 100 μl of a compound at graded concentrations was added to equal volume of cells (10^5/ml) in wells of 96-well plates followed by incubation at 37° C. for 3 days and addition of XTT (PolySciences, Inc., Warrington, Pa.).
This listing pairs molecules with measured CC50.

Example entries begin here.
- molecule: "Cc1ccc(NC(=O)C(=O)NC(c2nc(C)c(CCO)s2)C2CCCCN2)c(F)c1 (stereo not drawn) [Compound 37]"
  CC50: "> 78.8 µM"
- molecule: "Cc1nc(C(NC(=O)C(=O)Nc2ccc(F)c(F)c2)C2CCCCN2)sc1CO.Cl (stereo not drawn) [Compound 22]"
  CC50: "> 87 µM"
- molecule: "Cc1nc(C(NC(=O)C(=O)Nc2ccc(F)cc2F)C2CCCCN2)sc1CCO (stereo not drawn) [Compound 32]"
  CC50: "> 84 µM"
- molecule: "Cc1nc(C(NC(=O)C(=O)Nc2ccc(Cl)cc2)C2CCCCN2C)sc1CCO (stereo not drawn) [Compound 12]"
  CC50: "36 µM"
- molecule: "CC1(C)CC(NC(=O)C(=O)Nc2ccc(Cl)cc2)CC(C)(C)N1 [NBD-556, reference compound]"
  CC50: "> 60 µM"

The molecule listed as Cc1nc(C(NC(=O)C(=O)Nc2ccc(C(F)(F)F)cc2)C2CCCCN2)sc1CO.Cl.Cl (stereo not drawn) [Compound 20] shows CC50 equal to > 75.5 µM

What the record says about Cc1nc(C(NC(=O)C(=O)Nc2ccc(F)cc2F)C2CCCCN2)sc1CO (stereo not drawn) [Compound 21] : CC50 is > 87 µM

Data point: Cc1nc(C(NC(=O)C(=O)NC2CCCCCC2)C2CCCCN2)sc1CO (stereo not drawn) [Compound 29] ; CC50 = > 90 µM

Noted for Cc1ccc(NC(=O)C(=O)NC(c2nc(C)c(CO)s2)C2CCCCN2)c(F)c1 (stereo not drawn) [Compound 26] : its CC50 reads > 88 µM
